measurement target: EGFR (human) (UniProt P00533)
Sequence (P00533 whole entry, looked up): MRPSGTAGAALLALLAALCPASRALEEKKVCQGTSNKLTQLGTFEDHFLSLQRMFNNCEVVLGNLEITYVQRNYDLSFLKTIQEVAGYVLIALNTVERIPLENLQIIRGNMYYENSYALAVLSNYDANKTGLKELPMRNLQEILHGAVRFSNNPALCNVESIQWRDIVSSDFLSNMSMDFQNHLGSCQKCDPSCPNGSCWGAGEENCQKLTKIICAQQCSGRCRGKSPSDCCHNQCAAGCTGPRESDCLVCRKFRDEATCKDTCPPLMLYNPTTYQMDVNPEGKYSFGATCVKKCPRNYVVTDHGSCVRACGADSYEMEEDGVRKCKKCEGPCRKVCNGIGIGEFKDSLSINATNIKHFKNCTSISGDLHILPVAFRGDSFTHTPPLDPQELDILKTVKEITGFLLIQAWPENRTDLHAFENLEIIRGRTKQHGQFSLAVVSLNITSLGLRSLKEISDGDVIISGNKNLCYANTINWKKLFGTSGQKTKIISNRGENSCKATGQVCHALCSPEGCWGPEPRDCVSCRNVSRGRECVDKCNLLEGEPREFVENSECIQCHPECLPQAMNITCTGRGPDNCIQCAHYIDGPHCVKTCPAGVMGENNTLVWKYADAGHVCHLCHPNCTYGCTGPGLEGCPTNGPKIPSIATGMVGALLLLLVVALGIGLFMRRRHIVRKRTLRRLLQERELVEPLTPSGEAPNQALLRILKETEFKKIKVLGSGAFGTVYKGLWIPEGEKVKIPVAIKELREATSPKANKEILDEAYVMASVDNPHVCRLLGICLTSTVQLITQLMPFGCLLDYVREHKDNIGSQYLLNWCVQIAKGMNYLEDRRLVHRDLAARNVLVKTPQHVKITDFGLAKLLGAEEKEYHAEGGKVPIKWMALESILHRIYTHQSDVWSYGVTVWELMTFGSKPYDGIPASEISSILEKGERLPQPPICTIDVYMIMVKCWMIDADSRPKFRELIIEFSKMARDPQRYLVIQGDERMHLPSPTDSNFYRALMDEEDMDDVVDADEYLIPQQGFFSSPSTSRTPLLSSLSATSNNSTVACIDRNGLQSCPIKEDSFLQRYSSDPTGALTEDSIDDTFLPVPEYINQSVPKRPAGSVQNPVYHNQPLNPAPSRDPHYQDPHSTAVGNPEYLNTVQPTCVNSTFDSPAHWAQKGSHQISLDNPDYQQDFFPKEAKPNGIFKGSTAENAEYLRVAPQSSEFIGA
cond: a431
quantity: IC50

1) COc1cc2nc(Nc3cccc(Br)c3)n3nnnc3c2cc1OC    > 100 µM
2) COc1ccc(N2CCN(c3ncnc4cc(OC)c(OC)cc34)CC2)cc1    > 100 µM
3) COc1cc2ncnc(N3CCS(=O)(=O)CC3)c2cc1OC    > 100 µM

---

measurement target: EGFR (human)
cond: a431
quantity: IC50

1) COc1cc2ncnc(NCCNc3ccccc3)c2cc1OC    > 100 µM
2) COc1cc2ncnc(N3CCN(c4ccccc4C)CC3)c2cc1OC    > 100 µM
3) COc1cc2ncnc(N3CCN(c4ccc(F)cc4)CC3)c2cc1OC    > 100 µM
4) COc1cc2ncnc(N3CCOCC3)c2cc1OC    > 100 µM
5) COc1cc2ncnc(N3CCN(c4cccc(Cl)c4)CC3)c2cc1OC    > 100 µM
6) COc1ccc(Nc2ncnc3cc(OC)c(OC)cc23)cc1OC    > 100 µM
7) COc1cc2ncnc(N3CCN(c4ccccc4F)CC3)c2cc1OC    > 100 µM
8) COc1cc2c(Nc3cccc(Br)c3)nc3nnnn3c2cc1OC    > 100 µM
9) COc1cc2nc(N3CCOCC3)nc(N3CCOCC3)c2cc1OC    > 100 µM
10) COc1ccc(CCCCNc2ncnc3cc(OC)c(OC)cc23)cc1OC    > 100 µM
11) COc1cc2ncnc(N3CCNCC3)c2cc1OC    > 100 µM
12) COc1cc2ncnc(N3CCN(c4ccccc4)CC3)c2cc1OC    30.8 µM
13) COc1cc2ncnc(N3CCN(Cc4ccccc4)CC3)c2cc1OC    21.8 µM
14) COc1cc2ncnc(N3CCSCC3)c2cc1OC    > 100 µM
15) COc1ccc(CCNc2ncnc3cc(OC)c(OC)cc23)cc1OC    26.5 µM
16) COc1cc2nc(Nc3cccc(Br)c3)nc(Nc3cccc(Br)c3)c2cc1OC    13.2 µM
17) COc1cc2ncnc(N3CCN(c4ccccc4Cl)CC3)c2cc1OC    13.7 µM

Data origin: the Kinase Knowledgebase extract (Sharma et al. 2016)
